Listed next: entries and their corresponding solubility kinetic at 24 h.
Assay: Kinetic solubility assay (CLND), potassium phosphate buffer pH 6.8
Type: physicochemical
Details: potassium phosphate buffer, aqueous buffer, kinetic from dmso stock, pH 6.8, 2% DMSO, 24 hours at ambient temperature, comparator table

{"columns": ["molecule", "solubility kinetic at 24 h"],
 "data": [
  ["CC(C)Oc1cc2nn(C34COC(C)(C3)C4)cc2cc1C(=O)Nc1cccn(C)c1=O [Comparator 1A, reference compound]", "60 µg/mL"],
  ["CC(C)Oc1nc2nn([C@]34CC[C@](C)(C3)OC4)cc2cc1C(=O)Nc1cccn(C)c1=O (single isomer, unassigned) [Comparator 1C, reference compound]", "44.3 µg/mL"]
]}

###

Experiment: Kinetic solubility assay (CLND), potassium phosphate buffer pH 6.8
Type: physicochemical
Details: potassium phosphate buffer, pH 6.8, aqueous buffer, kinetic from dmso stock, pH 6.8, 2% DMSO, 24 hours at ambient temperature
recorded.endpoint: solubility at 24 h (µg/mL)

{"columns": ["compound", "recorded.endpoint", "endpoint.result"],
 "data": [
  ["O=C(Nc1cccn([C@H]2C[C@H]2F)c1=O)c1cc2cn([C@]34CC[C@H](C3)OC4)nc2nc1OC1CC1 (single isomer, unassigned)", "solubility at 24 h", 59.3],
  ["COCC12CC(n3cc4cc(C(=O)Nc5cccn([C@H]6C[C@H]6C)c5=O)c(OC(C)C)cc4n3)(CO1)C2", "solubility at 24 h", 36.1],
  ["CC(C)Oc1cc2nn(C34COC(C)(C3)C4)cc2cc1C(=O)Nc1cccn([C@@H]2C[C@H]2F)c1=O (single isomer, unassigned)", "solubility at 24 h", 66.5]
]}

###

Reported log10 of solubility at 24 h values for the following compounds.
Experiment: Kinetic solubility assay (CLND), potassium phosphate buffer pH 6.8
Type: physicochemical
Conditions: potassium phosphate buffer, pH 6.8, aqueous buffer, kinetic from dmso stock, pH 6.8, 2% DMSO, 24 hours at ambient temperature
recorded.endpoint: log10 of solubility at 24 h (log10 of the value in µg/mL)

{"columns": ["compound", "log10 of solubility at 24 h"],
 "data": [
  ["COCC12CC(n3cc4cc(C(=O)Nc5cccn(C6CC6)c5=O)c(OC(C)C)nc4n3)(CO1)C2 [Example 11]", 1.56],
  ["COCC12CC(n3cc4cc(C(=O)Nc5cccn(C6CC6)c5=O)c(OC(C)C)cc4n3)(CO1)C2 [Example 12]", 1.83],
  ["COCC12CCC(n3cc4cc(C(=O)Nc5cccn(C6CC6)c5=O)c(OC(C)C)nc4n3)(CO1)C2 (centres unmarked) [Example 29]", 1.87],
  ["CC(C)Oc1nc2nn(C34COC(C3)C4)cc2cc1C(=O)Nc1cccn([C@H]2C[C@H]2C)c1=O [Example 80]", 1.51],
  ["O=C(Nc1cccn([C@H]2C[C@H]2F)c1=O)c1cc2cn([C@@]34CC[C@@H](C3)OC4)nc2nc1OC1CC1 (single isomer, unassigned) [Example 87]", 1.80],
  ["CC(C)Oc1cc2nn([C@@]34CC[C@@](C)(C3)OC4)cc2cc1C(=O)Nc1cccn(C2CC2)c1=O [Example 2]", 1.71],
  ["CC(C)Oc1nc2nn(C34COC(C)(C3)C4)cc2cc1C(=O)Nc1cccn([C@H]2C[C@H]2F)c1=O [Example 84]", 1.20],
  ["CC(C)Oc1cc2nn([C@]34CC[C@](C)(C3)OC4)cc2cc1C(=O)Nc1cccn(C2CC2)c1=O [Example 3]", 0.90],
  ["CC(C)Oc1nc2nn([C@H]3CCCOC3)cc2cc1C(=O)Nc1cccn(C2CC2)c1=O [Example 16]", 1.65],
  ["CC(C)Oc1cc2nn(C34COC(C)(C3)C4)cc2cc1C(=O)Nc1cccn([C@H]2C[C@H]2C)c1=O [Example 96]", 1.13],
  ["CC(C)Oc1cc2nn([C@]34CC[C@](C)(C3)OC4)cc2cc1C(=O)Nc1cccn([C@H]2C[C@H]2F)c1=O (single isomer, unassigned) [Example 51]", 1.63],
  ["CC(C)Oc1cc2nn(C34COC(C)(C3)C4)cc2cc1C(=O)Nc1ccnn(C2CC2)c1=O [Example 45]", 0.08],
  ["COCC12CC(n3cc4cc(C(=O)Nc5cccn([C@H]6C[C@H]6C)c5=O)c(OC(C)C)nc4n3)(CO1)C2 [Example 77]", 1.71],
  ["COCC12CC(n3cc4cc(C(=O)Nc5cccn([C@H]6C[C@@H]6F)c5=O)c(OC(C)C)nc4n3)(CO1)C2 (single isomer, unassigned) [Example 64]", 1.77]
]}

###

Target: UniProt Q9NWZ3
Sequence (Q9NWZ3 whole entry): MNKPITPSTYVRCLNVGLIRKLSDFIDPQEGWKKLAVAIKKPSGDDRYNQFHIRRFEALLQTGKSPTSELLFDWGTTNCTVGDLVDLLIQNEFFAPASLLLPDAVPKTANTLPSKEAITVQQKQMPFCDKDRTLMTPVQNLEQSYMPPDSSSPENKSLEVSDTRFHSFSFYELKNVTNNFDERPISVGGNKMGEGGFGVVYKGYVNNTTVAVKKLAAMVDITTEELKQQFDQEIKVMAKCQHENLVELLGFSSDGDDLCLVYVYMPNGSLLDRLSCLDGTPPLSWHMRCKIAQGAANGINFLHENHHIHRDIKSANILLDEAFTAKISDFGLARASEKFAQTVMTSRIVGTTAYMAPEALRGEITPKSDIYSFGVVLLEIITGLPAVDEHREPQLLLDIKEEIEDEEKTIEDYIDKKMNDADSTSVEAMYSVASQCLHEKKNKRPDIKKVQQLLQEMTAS
Test: IRAK4 2-hour 1 mM ATP Biochemical Assay (MesoScale Detection format)
Conditions: 100 pM IRAK4, read-out: IRAK4 IC50
pIC50: −log10 of the molar value.
Recorded pIC50 by entry

{"columns": ["compound", "pIC50"],
 "data": [
  ["CC[C@@H](C)Oc1nc2nn(C34COC(C)(C3)C4)cc2cc1C(=O)Nc1cccn(C2CC2)c1=O [Example 14]", 8.85],
  ["COCC12CC(n3cc4cc(C(=O)Nc5cccn([C@@H]6C[C@@H]6C)c5=O)c(OC(C)C)cc4n3)(CO1)C2 [Example 73]", 7.36],
  ["CC12CC(n3cc4cc(C(=O)Nc5cccn([C@@H]6C[C@@H]6F)c5=O)c(OC5CCC5)nc4n3)(CO1)C2 (racemic) [Example 25]", 9.52],
  ["CC(C)Oc1nc2nn([C@]34CC[C@](C)(C3)OC4)cc2cc1C(=O)Nc1cccn(C2CC2)c1=O (single isomer, unassigned) [Example 48]", 9.70],
  ["O=C(Nc1cccn([C@H]2C[C@H]2F)c1=O)c1cc2cn([C@@]34CC[C@@H](C3)OC4)nc2nc1OC1CC1 (single isomer, unassigned) [Example 87]", 9.70],
  ["CC(C)Oc1nc2nn(C34COC(C)(C3)C4)cc2cc1C(=O)Nc1ccnn(C2CC2)c1=O [Example 46]", 9.40]
]}

###

Biological target: UniProt Q9NWZ3
Assay: IRAK4 2-hour 1 mM ATP Biochemical Assay (MesoScale Detection format)
Conditions: 100 pM IRAK4, read-out: IRAK4 IC50
pIC50: −log10 of the molar value.

{"columns": ["compound", "study.target", "pIC50"],
 "data": [
  ["CC(C)Oc1nc2nn([C@H]3CCCOC3)cc2cc1C(=O)Nc1cccn(C2CC2)c1=O", "UniProt Q9NWZ3", 9.70],
  ["COCC12CC(n3cc4cc(C(=O)Nc5cccn([C@H]6C[C@H]6F)c5=O)c(OC(C)C)nc4n3)(CO1)C2", "UniProt Q9NWZ3", 10.00],
  ["CC12CC(n3cc4cc(C(=O)Nc5cccn([C@@H]6C[C@@H]6F)c5=O)c(OC5CCC5)nc4n3)(CO1)C2 [Example 26]", "UniProt Q9NWZ3", 8.14],
  ["COCC12CCC(n3cc4cc(C(=O)Nc5cccn(C6CC6)c5=O)c(OC(C)C)nc4n3)(CO1)C2 (stereo not shown)", "UniProt Q9NWZ3", 9.70],
  ["CC(C)Oc1cc2nn(C34COC(C)(C3)C4)cc2cc1C(=O)Nc1ccnn(C2CC2)c1=O", "UniProt Q9NWZ3", 8.89],
  ["C[C@@H]1C[C@@H]1n1cccc(NC(=O)c2cc3cn([C@@]45CC[C@@H](C4)OC5)nc3nc2OC2CC2)c1=O (single isomer, unassigned) [Example 93]", "UniProt Q9NWZ3", 9.30],
  ["CC(C)Oc1cc2nn(C34COC(CF)(C3)C4)cc2cc1C(=O)Nc1cccn([C@H]2C[C@H]2F)c1=O", "UniProt Q9NWZ3", 9.70]
]}

###

Biological target: MDR1 (Homo sapiens (Human), UniProt P08183)
Sequence (P08183 whole entry): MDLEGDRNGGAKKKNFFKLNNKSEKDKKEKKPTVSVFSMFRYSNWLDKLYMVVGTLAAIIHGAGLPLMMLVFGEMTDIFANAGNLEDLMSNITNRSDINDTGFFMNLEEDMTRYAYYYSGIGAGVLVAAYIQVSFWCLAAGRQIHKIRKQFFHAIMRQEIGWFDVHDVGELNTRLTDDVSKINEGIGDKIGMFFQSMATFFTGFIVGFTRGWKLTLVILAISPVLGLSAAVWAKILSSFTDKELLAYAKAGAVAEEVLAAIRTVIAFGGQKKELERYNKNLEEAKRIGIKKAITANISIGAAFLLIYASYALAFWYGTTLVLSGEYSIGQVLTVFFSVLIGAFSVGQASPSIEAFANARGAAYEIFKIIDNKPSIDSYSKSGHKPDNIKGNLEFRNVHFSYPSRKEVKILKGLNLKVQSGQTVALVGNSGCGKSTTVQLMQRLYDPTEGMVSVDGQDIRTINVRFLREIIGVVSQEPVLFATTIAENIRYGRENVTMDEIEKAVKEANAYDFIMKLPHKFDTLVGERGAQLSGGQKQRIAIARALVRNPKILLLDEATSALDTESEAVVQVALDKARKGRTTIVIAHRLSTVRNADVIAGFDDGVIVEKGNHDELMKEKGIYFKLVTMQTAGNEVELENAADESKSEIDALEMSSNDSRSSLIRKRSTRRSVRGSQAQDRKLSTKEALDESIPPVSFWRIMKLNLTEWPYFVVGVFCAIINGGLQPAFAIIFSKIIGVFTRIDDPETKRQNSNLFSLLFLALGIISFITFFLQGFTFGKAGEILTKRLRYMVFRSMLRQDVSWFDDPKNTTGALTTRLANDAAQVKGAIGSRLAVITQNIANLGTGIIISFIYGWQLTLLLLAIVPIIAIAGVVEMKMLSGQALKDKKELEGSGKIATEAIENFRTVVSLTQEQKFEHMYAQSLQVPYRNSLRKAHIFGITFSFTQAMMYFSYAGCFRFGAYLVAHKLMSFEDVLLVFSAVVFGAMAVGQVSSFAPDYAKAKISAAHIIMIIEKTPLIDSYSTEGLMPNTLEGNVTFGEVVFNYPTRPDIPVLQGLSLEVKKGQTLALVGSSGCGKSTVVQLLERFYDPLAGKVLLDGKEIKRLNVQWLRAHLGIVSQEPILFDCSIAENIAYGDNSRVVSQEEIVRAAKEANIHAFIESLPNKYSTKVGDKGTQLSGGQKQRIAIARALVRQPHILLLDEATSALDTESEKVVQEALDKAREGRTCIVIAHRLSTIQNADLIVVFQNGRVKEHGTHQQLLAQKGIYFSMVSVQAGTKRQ
Test: MDR1-MDCK assay (apparent permeability, efflux ratio)
Type: in vitro ADME
Details: human, MDCK-MDR1, 1 μM, read-out: MDR1-MDCK_Efflux Ratio
Examples of molecules with documented efflux ratio at 120 min, 1 μM follow.

{"columns": ["structure.smiles.string", "efflux ratio at 120 min, 1 μM"],
 "data": [
  ["CC(C)Oc1cc2nn(C34COC(C3)C4)cc2cc1C(=O)Nc1cccn([C@@H]2C[C@@H]2C)c1=O", 2.07],
  ["CC(C)Oc1cc2nn([C@@]34CC[C@@](C)(C3)OC4)cc2cc1C(=O)Nc1cccn([C@H]2C[C@H]2F)c1=O", 2.75],
  ["CC(C)Oc1nc2nn(C34COC(C)(C3)C4)cc2cc1C(=O)Nc1cccn(C2(C)CC2)c1=O", 1.31],
  ["CC12CC(n3cc4cc(C(=O)Nc5cccn(C6CC6)c5=O)c(OC5CCC5)nc4n3)(CO1)C2", 2.53],
  ["CC(C)Oc1cc2nn(C34COC(C3)C4)cc2cc1C(=O)Nc1cccn([C@H]2C[C@H]2C)c1=O", 2.56],
  ["C[C@@H]1C[C@@H]1n1cccc(NC(=O)c2cc3cn(C45COC(C)(C4)C5)nc3nc2OC2CC2)c1=O", 2.28],
  ["CC[C@@H](C)Oc1nc2nn(C34COC(C)(C3)C4)cc2cc1C(=O)Nc1cccn(C2CC2)c1=O", 2.27]
]}
